Data credit: patent US20050095240A1

Some compounds, each annotated with its measured Citrate Uptake, cDNA.
Target: UniProt Q86YT5
Sequence (Q86YT5 whole entry): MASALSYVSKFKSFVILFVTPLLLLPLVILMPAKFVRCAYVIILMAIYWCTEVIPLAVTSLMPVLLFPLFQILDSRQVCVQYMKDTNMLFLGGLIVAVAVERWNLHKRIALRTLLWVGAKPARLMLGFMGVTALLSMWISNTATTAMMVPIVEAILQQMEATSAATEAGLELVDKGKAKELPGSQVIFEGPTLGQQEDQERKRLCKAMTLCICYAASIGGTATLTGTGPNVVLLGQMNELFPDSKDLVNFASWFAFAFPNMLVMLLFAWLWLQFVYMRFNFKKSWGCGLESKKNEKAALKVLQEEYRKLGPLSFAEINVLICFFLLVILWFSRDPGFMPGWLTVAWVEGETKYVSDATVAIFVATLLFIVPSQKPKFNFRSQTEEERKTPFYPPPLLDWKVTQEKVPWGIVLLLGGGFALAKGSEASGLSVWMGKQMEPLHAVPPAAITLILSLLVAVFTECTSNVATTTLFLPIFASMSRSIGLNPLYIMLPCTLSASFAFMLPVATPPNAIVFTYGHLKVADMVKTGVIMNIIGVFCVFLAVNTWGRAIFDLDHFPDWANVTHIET
Assay: Uptake via human NaCT expressed in HRPE cells
Format: cell-based
Conditions: [14C]-citrate 20 μM; human NaCT cDNA-transfected HRPE; pH 7.5; indicated salt

- COMPOUND: "CNC[C@H](O)[C@@H](O)[C@H](O)[C@H](O)CO.Cl [NMDG chloride, N-methyl-D-glucamine chloride]"
  EXPERIMENTAL TARGET: "UniProt Q86YT5"
  VALUE UNIT: "pmol/10^6 cells/min"
  Citrate Uptake, cDNA: 1.3
- COMPOUND: "O=C([O-])[C@H](O)[C@@H](O)[C@H](O)[C@H](O)CO.[Na+] [Sodium gluconate]"
  EXPERIMENTAL TARGET: "UniProt Q86YT5"
  VALUE UNIT: "pmol/10^6 cells/min"
  Citrate Uptake, cDNA: 61.7
- COMPOUND: "[Cl-].[Na+]"
  EXPERIMENTAL TARGET: "UniProt Q86YT5"
  VALUE UNIT: "pmol/10^6 cells/min"
  Citrate Uptake, cDNA: 59.9
- COMPOUND: "[Cl-].[Li+]"
  EXPERIMENTAL TARGET: "UniProt Q86YT5"
  VALUE UNIT: "pmol/10^6 cells/min"
  Citrate Uptake, cDNA: 2.0

* * *

Catalogue of Citrate uptake, drIndy values
Molecular target: UniProt:Q9VVT2
Settings: citrate 35 μM; drIndy cDNA-transfected HRPE cells; indicated salt

- MOLECULE: "O=C([O-])[C@H](O)[C@@H](O)[C@H](O)[C@H](O)CO.[Na+] [Sodium gluconate]"
  Citrate uptake, drIndy: "144.2 ± 1.6 pmol/10^6 cells per min"
- MOLECULE: "CNC[C@H](O)[C@@H](O)[C@H](O)[C@H](O)CO.Cl [NMDG chloride, N-methyl-D-glucamine chloride]"
  Citrate uptake, drIndy: "25.4 ± 1.8 pmol/10^6 cells per min"
- MOLECULE: "[Cl-].[Na+]"
  Citrate uptake, drIndy: "57.4 ± 3.3 pmol/10^6 cells per min"
- MOLECULE: "OC[C@@H](O)[C@@H](O)[C@H](O)[C@H](O)CO"
  Citrate uptake, drIndy: "26.3 ± 0.3 pmol/10^6 cells per min"
- MOLECULE: "[Cl-].[Li+]"
  Citrate uptake, drIndy: "52.1 ± 2.2 pmol/10^6 cells per min"

* * *

Target: UniProt:Q9VVT2
Conditions: citrate 35 μM; indicated salt
QUANTITY MEASURED: Fold Increase of citrate uptake (drIndy vs vector) (fold)

- COMPOUND: "OC[C@@H](O)[C@@H](O)[C@H](O)[C@H](O)CO"
  VALUE UNIT: "fold"
  RESULT: 15.5
- COMPOUND: "[Cl-].[Na+]"
  VALUE UNIT: "fold"
  RESULT: 26.1
- COMPOUND: "[Cl-].[Li+]"
  VALUE UNIT: "fold"
  RESULT: 27.4
- COMPOUND: "CNC[C@H](O)[C@@H](O)[C@H](O)[C@H](O)CO.Cl [NMDG chloride, N-methyl-D-glucamine chloride]"
  VALUE UNIT: "fold"
  RESULT: 13.4
- COMPOUND: "O=C([O-])[C@H](O)[C@@H](O)[C@H](O)[C@H](O)CO.[Na+] [Sodium gluconate]"
  VALUE UNIT: "fold"
  RESULT: 65.6

* * *

The reader will find reported [^14C]-Citrate Uptake (cDNA-specific) values listed item by item below.
Biological target: UniProtKB Q86YT5
Assay: Uptake via human NaCT expressed in HRPE cells
Assay type: cell-based

- COMPOUND: "CC(O)C(=O)O (stereo not shown) [Lactate, lactate]"
  [^14C]-Citrate Uptake (cDNA-specific) [pmol/10^6 cells/min]: 61.2
- COMPOUND: "O=C(O)CC(=O)O [Malonate, malonate]"
  [^14C]-Citrate Uptake (cDNA-specific) [pmol/10^6 cells/min]: 57.3
- COMPOUND: "O=C(O)/C=C/C(=O)O [Fumarate]"
  [^14C]-Citrate Uptake (cDNA-specific) [pmol/10^6 cells/min]: 43.7
- COMPOUND: "O=C(O)/C=C\\C(=O)O [Maleate]"
  [^14C]-Citrate Uptake (cDNA-specific) [pmol/10^6 cells/min]: 58.0

* * *

Target: mouse NaCT (Mus musculus, UniProt Q67BT3)
Sequence (Q67BT3 whole entry): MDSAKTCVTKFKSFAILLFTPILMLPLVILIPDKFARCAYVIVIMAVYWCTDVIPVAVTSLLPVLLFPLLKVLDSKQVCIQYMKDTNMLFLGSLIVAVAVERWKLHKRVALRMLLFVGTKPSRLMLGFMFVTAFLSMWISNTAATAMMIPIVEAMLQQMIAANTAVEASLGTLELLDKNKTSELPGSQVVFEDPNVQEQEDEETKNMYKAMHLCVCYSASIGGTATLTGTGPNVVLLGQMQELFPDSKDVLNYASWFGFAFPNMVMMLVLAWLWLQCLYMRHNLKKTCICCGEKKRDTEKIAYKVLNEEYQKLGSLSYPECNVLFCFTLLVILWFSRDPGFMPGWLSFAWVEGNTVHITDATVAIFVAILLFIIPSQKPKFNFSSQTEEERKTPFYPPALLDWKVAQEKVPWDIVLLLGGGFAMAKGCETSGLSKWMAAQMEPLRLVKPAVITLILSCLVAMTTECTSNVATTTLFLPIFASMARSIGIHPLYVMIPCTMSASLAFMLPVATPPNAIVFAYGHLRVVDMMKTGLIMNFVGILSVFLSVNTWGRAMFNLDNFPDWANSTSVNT
Assay: Transport via mouse NaCT expressed in HRPE cells
Format: cell-based
Settings: [14C]-citrate 10 μM; substrate analog 2 mM; control = 100
[^14C]-Citrate transport, % values by entry

- MOLECULE: "O=C(O)CCC(=O)O [Succinate, succinate]"
  [^14C]-Citrate transport, % (%): 1
- MOLECULE: "O=C(O)CC(O)(CC(=O)O)C(=O)O [Citrate]"
  [^14C]-Citrate transport, % (%): 2
- MOLECULE: "O=C(O)CC(O)C(=O)O (centres unmarked) [Malate, malate]"
  [^14C]-Citrate transport, % (%): 1
- MOLECULE: "CC(=O)C(=O)O [Pyruvate, pyruvate]"
  [^14C]-Citrate transport, % (%): 84
- MOLECULE: "O=C(O)/C=C(/CC(=O)O)C(=O)O [cis-Aconitate, cis-aconitate]"
  [^14C]-Citrate transport, % (%): 47

* * *

Molecular target: mouse NaCT (Mus musculus, UniProt Q67BT3)
Assay: Transport via mouse NaCT expressed in HRPE cells
Settings: read-out: K0.5 for Na+ (half-maximal activation of the transport process)
pEC50: −log10 of the molar value.

- SMILES: "[Na+]"
  pEC50: 1.14

* * *

Target: mouse NaCT (Mus musculus, UniProt Q67BT3)
Test: Transport via mouse NaCT expressed in HRPE cells
Format: cell-based
Conditions: [3H]-succinate 0.1 μM; substrate analog 2 mM
Entries and their measured [^3H]-Succinate transport (NaCT-specific) follow.
QUANTITY MEASURED: [^3H]-Succinate transport (NaCT-specific) (pmol/10^6 cells/min)

- COMPOUND: "O=C(O)CCC(=O)O [Succinate, succinate]"
  RESULT: 0.007
- COMPOUND: "O=C(O)CC(O)(CC(=O)O)C(=O)O [Citrate]"
  RESULT: 0.004
- COMPOUND: "O=C(O)CC(O)C(=O)O (stereo not shown) [Malate, malate]"
  RESULT: 0.004
- COMPOUND: "O=C(O)/C=C(/CC(=O)O)C(=O)O [cis-Aconitate, cis-aconitate]"
  RESULT: 0.062

* * *

Reported cDNA-specific [^3H] succinate uptake values for the following molecules.
Biological target: drIndy (Drosophila melanogaster, UniProt Q9VVT2)
Sequence (Q9VVT2 19-590): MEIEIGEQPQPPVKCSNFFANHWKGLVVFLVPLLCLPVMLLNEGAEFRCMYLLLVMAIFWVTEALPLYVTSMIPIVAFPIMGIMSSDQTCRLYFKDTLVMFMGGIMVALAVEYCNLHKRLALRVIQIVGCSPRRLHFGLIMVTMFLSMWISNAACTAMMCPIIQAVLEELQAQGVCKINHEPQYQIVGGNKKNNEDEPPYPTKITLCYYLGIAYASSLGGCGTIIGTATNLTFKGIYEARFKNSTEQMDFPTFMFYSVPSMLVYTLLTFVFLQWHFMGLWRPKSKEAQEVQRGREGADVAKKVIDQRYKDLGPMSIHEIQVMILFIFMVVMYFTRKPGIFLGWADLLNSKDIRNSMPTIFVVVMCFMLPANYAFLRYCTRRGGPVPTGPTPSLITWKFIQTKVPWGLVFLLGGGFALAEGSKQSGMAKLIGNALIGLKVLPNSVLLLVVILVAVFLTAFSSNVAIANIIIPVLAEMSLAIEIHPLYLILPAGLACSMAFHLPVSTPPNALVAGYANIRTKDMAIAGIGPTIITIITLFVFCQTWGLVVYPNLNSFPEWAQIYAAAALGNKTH
Settings: [3H]succinate 40 nM; inhibitor 2.5 mM; NaCl buffer pH 7.5
QUANTITY MEASURED: cDNA-specific [^3H] succinate uptake (fmol/106 cells per min)

- MOLECULE: "O=C(O)CC(O)(CC(=O)O)C(=O)O [Citrate]"
  VALUE UNIT: "fmol/106 cells per min"
  RESULT: 18.6
- MOLECULE: "O=C(O)CC(O)C(=O)O (stereo not drawn) [Malate, malate]"
  VALUE UNIT: "fmol/106 cells per min"
  RESULT: 6.8
- MOLECULE: "COC(=O)CCC(=O)OC [Dimethylsuccinate]"
  VALUE UNIT: "fmol/106 cells per min"
  RESULT: 14.1
- MOLECULE: "O=C(O)CCC(=O)O [Succinate, succinate]"
  VALUE UNIT: "fmol/106 cells per min"
  RESULT: 4.6
- MOLECULE: "CC(=O)N[C@@H](CC(=O)O)C(=O)O [N-Acetylaspartate]"
  VALUE UNIT: "fmol/106 cells per min"
  RESULT: 58.4
- MOLECULE: "CC(O)CC(=O)O (stereo not drawn) [β-Hydroxybutyrate]"
  VALUE UNIT: "fmol/106 cells per min"
  RESULT: 134.0

* * *

Molecular target: drIndy (Drosophila melanogaster, UniProt Q9VVT2)
Conditions: [3H]succinate 40 nM; inhibitor 2.5 mM
Entry flag: t if % Control of cDNA-specific [^3H]succinate uptake reaches 10%; f if it does not.

- COMPOUND: "CC(=O)N[C@@H](CC(=O)O)C(=O)O [N-Acetylaspartate]"
  EXPERIMENTAL TARGET: "drIndy (Drosophila melanogaster, UniProt Q9VVT2)"
  CLASS: "t"
- COMPOUND: "O=C(O)CC(O)(CC(=O)O)C(=O)O [Citrate]"
  EXPERIMENTAL TARGET: "drIndy (Drosophila melanogaster, UniProt Q9VVT2)"
  CLASS: "t"
- COMPOUND: "O=C(O)CC(O)C(=O)O (stereo not shown) [Malate, malate]"
  EXPERIMENTAL TARGET: "drIndy (Drosophila melanogaster, UniProt Q9VVT2)"
  CLASS: "f"
- COMPOUND: "CC(=O)C(=O)O [Pyruvate, pyruvate]"
  EXPERIMENTAL TARGET: "drIndy (Drosophila melanogaster, UniProt Q9VVT2)"
  CLASS: "t"
- COMPOUND: "O=C(O)CCC(=O)O [Succinate, succinate]"
  EXPERIMENTAL TARGET: "drIndy (Drosophila melanogaster, UniProt Q9VVT2)"
  CLASS: "f"
- COMPOUND: "CC(O)CC(=O)O (stereo not drawn) [β-Hydroxybutyrate]"
  EXPERIMENTAL TARGET: "drIndy (Drosophila melanogaster, UniProt Q9VVT2)"
  CLASS: "t"
- COMPOUND: "COC(=O)CCC(=O)OC [Dimethylsuccinate]"
  EXPERIMENTAL TARGET: "drIndy (Drosophila melanogaster, UniProt Q9VVT2)"
  CLASS: "t"
